Molecular target: N-C3 (Homo sapiens, UniProt Q13018)
Construct: the N-terminus to and including CTLD3 (N-C3); no tag is printed; made in house; host or cells: HEK 293-EBNA1
Sequence (Q13018 21-643 limits assumed): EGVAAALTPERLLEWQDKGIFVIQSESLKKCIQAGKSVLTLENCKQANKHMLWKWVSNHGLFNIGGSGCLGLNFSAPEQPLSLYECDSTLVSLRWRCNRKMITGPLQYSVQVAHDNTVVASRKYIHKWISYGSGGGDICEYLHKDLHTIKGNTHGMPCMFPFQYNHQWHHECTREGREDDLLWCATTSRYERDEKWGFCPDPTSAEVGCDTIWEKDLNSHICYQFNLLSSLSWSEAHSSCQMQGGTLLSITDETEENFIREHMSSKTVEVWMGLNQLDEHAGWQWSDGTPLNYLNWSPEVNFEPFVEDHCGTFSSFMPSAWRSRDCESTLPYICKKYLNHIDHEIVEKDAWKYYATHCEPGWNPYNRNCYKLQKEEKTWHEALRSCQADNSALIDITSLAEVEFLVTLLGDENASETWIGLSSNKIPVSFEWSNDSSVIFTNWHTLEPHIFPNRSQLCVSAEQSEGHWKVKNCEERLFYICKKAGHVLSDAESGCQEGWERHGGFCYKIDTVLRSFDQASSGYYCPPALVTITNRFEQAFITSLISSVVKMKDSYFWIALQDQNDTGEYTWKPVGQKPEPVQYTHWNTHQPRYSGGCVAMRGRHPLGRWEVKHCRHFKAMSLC
Test: SPR kinetics of patient sera autoantibodies over immobilized N-C3
Details: patient autoantibodies in sera binding to immobilized N-C3
Procedure: Quantitation of serum antibody concentrations was performed on the Proteon XPR-36 (Bio-Rad) SPR instrument where the initial binding rates of purified human anti-PLA2R binding to N-C3 were used as standard curve to determine the concentration of anti-PLA2R in the unknown serum samples.
// Kd lookup, one value per entry
quantityName: Kd (nM)

* EDDLLWCATTSR [compound 3, Fibronectin type II domain peptide] | 0.043
* YLNHIDHEIVEKDAWK [compound 4, Linker between CTLD1 and CTLD2] | 0.085
* YYATHCEPGWNPYNR [compound 5, Linker between CTLD1 and CTLD2] | 0.032
